# key: entry, value: Plant response rating, Buckwheat, Wild
# Tested on: buckwheat, wild (wild buckwheat, Polygonum convolvulus)
# Experiment notes: Test D controlled growth environment herbicide test, pre- and postemergence
# Type: in vivo
# Assay context: Preemergence, 250 g ai/ha; scale 0 to 100, 0 no effect, 100 complete control
The response must contain the number and no unit.

Cc1cc(C)c2sc(C)c(-c3c(O)c(C)nn(C)c3=O)c2c1	100

Lookup: Answer with the recorded Plant response rating, Buckwheat, Wild of `CC(=O)Oc1c(C)nn(C)c(=O)c1-c1c(C)sc2ccc(Cl)cc12` only.
Found: 35

Lookup: Annotate the molecule `Cc1ccc2ccccc2c1-c1c(OC(=O)OC(C)C)c(C)nn(C)c1=O` with its measured Plant response rating, Buckwheat, Wild.
Found: 10

Lookup: Supply recorded Plant response rating, Buckwheat, Wild for `Cc1cc2ccccc2c(-c2c(O)c(C)nn(C)c2=O)c1C` here.
Found: 0

Lookup: Please report Plant response rating, Buckwheat, Wild for the following molecule: `Cc1nn(C)c(=O)c(-c2c(C)sc3c(C)cc(Cl)cc23)c1O`
Found: 35

Lookup: Return Plant response rating, Buckwheat, Wild for the following molecule: `Cc1ccc2sc(C)c(-c3c(OC(=O)OC(C)C)c(C)nn(C)c3=O)c2c1`
Found: 0
